Catalogue of pIC50 readings, one per entry.
- experimental target: human Nav1.7 (Homo sapiens (Human), UniProt Q15858)
- Sequence (Q15858 whole entry): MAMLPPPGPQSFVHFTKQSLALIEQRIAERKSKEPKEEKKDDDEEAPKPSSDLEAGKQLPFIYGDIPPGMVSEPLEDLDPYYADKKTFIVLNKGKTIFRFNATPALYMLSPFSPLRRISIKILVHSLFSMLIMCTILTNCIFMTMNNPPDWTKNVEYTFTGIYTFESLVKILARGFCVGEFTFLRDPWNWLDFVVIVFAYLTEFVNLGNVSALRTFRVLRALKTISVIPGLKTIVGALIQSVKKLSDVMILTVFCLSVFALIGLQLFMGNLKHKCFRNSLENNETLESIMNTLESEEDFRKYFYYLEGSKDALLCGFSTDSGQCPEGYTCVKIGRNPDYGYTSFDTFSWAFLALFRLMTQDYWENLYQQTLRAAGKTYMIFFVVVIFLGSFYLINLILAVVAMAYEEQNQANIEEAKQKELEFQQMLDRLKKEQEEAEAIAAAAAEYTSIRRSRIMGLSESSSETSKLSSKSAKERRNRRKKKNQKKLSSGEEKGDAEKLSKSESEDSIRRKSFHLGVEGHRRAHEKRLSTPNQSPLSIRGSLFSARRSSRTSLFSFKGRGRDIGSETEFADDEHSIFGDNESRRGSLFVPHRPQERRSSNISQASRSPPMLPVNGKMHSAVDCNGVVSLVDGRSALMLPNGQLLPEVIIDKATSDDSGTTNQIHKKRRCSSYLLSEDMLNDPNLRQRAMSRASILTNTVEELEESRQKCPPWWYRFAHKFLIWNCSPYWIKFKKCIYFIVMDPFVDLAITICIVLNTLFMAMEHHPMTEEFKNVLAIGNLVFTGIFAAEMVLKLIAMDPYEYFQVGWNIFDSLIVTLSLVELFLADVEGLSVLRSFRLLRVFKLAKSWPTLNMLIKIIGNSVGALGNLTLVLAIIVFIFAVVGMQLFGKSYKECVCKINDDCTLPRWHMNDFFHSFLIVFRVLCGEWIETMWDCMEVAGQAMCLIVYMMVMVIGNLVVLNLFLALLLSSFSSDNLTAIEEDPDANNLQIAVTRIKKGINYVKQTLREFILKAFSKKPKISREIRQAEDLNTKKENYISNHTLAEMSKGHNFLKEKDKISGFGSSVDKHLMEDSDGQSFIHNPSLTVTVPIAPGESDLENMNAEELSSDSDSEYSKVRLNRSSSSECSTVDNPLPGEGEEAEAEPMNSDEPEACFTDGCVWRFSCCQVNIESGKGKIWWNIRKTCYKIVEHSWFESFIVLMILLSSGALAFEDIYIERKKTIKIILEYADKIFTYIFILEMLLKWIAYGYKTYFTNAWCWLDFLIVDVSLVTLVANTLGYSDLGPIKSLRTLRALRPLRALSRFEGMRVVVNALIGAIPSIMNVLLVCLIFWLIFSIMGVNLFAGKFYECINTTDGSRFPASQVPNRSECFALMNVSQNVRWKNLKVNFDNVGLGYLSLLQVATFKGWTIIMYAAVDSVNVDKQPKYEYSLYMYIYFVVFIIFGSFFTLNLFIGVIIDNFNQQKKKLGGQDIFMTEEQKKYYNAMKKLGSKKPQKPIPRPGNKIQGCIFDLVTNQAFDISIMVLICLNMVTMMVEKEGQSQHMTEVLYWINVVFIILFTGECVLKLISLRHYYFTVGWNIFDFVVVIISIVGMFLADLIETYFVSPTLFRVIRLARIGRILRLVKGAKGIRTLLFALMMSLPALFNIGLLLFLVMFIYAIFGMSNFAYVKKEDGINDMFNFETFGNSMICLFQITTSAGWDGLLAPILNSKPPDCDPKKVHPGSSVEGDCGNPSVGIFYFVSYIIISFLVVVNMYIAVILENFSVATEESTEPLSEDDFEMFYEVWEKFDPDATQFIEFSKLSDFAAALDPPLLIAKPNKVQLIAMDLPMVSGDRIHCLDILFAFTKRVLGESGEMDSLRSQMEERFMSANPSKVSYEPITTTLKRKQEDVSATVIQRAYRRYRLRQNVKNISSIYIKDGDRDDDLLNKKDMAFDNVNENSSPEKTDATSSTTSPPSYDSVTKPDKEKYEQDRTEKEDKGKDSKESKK
- Sequence (Q07699 19-218 partner): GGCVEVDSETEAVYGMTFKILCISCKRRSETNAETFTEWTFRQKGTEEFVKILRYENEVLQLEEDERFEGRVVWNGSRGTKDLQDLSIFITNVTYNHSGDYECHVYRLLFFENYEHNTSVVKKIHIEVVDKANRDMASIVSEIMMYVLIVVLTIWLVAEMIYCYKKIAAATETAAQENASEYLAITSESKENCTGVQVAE
- test details: Human Nav1.7 inhibitory activity evaluation (automated patch clamp QPatch16X, HEK293A cells stably expressing human Nav1.7 and human Navβ1)
- Assay type: cell-based
- test conditions: HEK293A cells stably expressing human Nav1.7 and human Navβ1, automated patch clamp QPatch16X
pIC50: −log10 of the molar value.

compound | pIC50
O=C(N[C@H]1COc2ccc(C(F)F)cc2C1)c1cn2c(n1)CCC(C(F)(F)F)C2 (single isomer, unassigned) [7 (isomer B)] | > 6.00
CN(C(=O)c1cn2c(n1)CCC(C(F)(F)F)C2)[C@H]1COc2ccc(Cl)cc2C1 (single isomer, unassigned) [Example 4] | > 5.00
COc1cccc(-c2c(C(=O)N[C@H]3COc4ccc(Cl)cc4C3)nc3n2CCOC3)n1 [Example 65] | > 6.00
O=C(N[C@H]1COc2ccccc2C1)c1cn2c(n1)CCC(C1CCCC1)C2 (stereo partly shown) [Example 24] | > 6.00

###

- experimental target: human Nav1.7 (Homo sapiens (Human), UniProt Q15858)
- test details: Human Nav1.7 inhibitory activity evaluation (automated patch clamp QPatch16X, HEK293A cells stably expressing human Nav1.7 and human Navβ1)
- Format: cell-based
- test conditions: human Nav1.7, automated patch clamp
Catalogue of IC50 readings, one per entry.
measure name: IC50

compound | endpoint value
CCC(F)(CC)C1CCc2nc(C(=O)N[C@H]3COc4ccccc4C3)cn2C1 (stereo partly drawn) | < 10000 nM
O=C(N[C@H]1COc2ccc(Cl)cc2C1)c1cc2n(n1)CCC(COC(F)(F)F)O2 (stereo partly drawn) | < 1000 nM
CC(C)(F)C1CCn2nc(C(=O)N[C@H]3COc4ccc(C#N)cc4C3)cc2O1 (single isomer, unassigned) [547 (isomer A)] | < 10000 nM
O=C(N[C@H]1COc2ccc(COCC(F)(F)F)cc2C1)c1cc2n(n1)CCC(COCC(F)F)O2 (stereo partly drawn) | < 1000 nM
O=C(N[C@H]1COc2ccc(CCOC(F)F)cc2C1)c1cc2n(n1)CC(CCOC(F)F)O2 (single isomer, unassigned) [217 (isomer B)] | < 1000 nM
O=C(N[C@H]1COc2ccc(Br)cc2C1)c1cc2n(n1)CCC(C(F)(F)F)O2 (stereo partly drawn) | < 1000 nM
O=C(N[C@H]1COc2ccc(CC(F)(F)F)cc2C1)c1cc2n(n1)CC(COCC(F)(F)F)O2 (stereo partly drawn) [Example 191] | < 1000 nM
O=C(N[C@H]1COc2ccc(COCC(F)(F)F)cc2C1)c1cc2n(n1)CCN(CCC1CC1)C2 | < 1000 nM
N#Cc1ccc2c(c1)C[C@@H](NC(=O)c1cc3n(n1)CCN(Cc1ccccc1F)C3)CO2 | < 1000 nM
O=C(N[C@H]1COc2ccc(CC(F)F)cc2C1)c1cc2n(n1)CCC(C(F)(F)F)O2 (single isomer, unassigned) [173 (isomer B)] | < 10000 nM
CCOC(C)c1ccc2c(c1)C[C@@H](NC(=O)c1cc3n(n1)CCC(c1ccccc1F)O3)CO2 (stereo partly drawn) | < 10000 nM
N#Cc1ccc2c(c1)C[C@@H](NC(=O)c1cc3n(n1)CC(CCC1CCOCC1)O3)CO2 (stereo partly drawn) | < 1000 nM
O=C(N[C@H]1COc2ccc(Cl)cc2C1)c1cc2n(n1)CC(CCN1CC(F)(F)C1)O2 (single isomer, unassigned) [234 (isomer A)] | < 1000 nM
O=C(N[C@H]1COc2ccc(COCC(F)(F)F)cc2C1)c1cc2n(n1)CC(CCNCC(F)(F)F)O2 (single isomer, unassigned) [232 (isomer A)] | < 1000 nM
O=C(NC1COc2cccc(C(F)F)c2C1)c1cn2c(n1)CCC(C(F)(F)F)C2 (stereo not drawn) | < 1000 nM
O=C(c1cn2c(n1)CCC(c1cccc(N3CC(O)C3)n1)C2)N1CCC(c2ccccc2)C1 (stereo not drawn) | < 10000 nM
CC1(COCC2CC2)Cn2nc(C(=O)N[C@H]3COc4ccc(C#N)cc4C3)cc2O1 (stereo partly drawn) | < 10000 nM
O=C(N[C@H]1COc2cccc(Cl)c2C1)c1cc2n(n1)CCN(CCC(F)(F)F)C2 | < 10000 nM
O=C(N[C@H]1COc2ccc(CC(F)F)cc2C1)c1cc2n(n1)CCC(CCOC(F)F)O2 (stereo partly drawn) [Example 147] | < 1000 nM
O=C(N[C@H]1COc2ccc(Cl)cc2C1)c1cc2n(n1)CC(Cn1cccn1)O2 (stereo partly drawn) | < 10000 nM
N#CC1(COCC2CCn3nc(C(=O)N[C@H]4COc5ccc(Cl)cc5C4)cc3O2)CC1 (stereo partly drawn) [Example 538] | < 1000 nM
N#Cc1ccc2c(c1)C[C@@H](NC(=O)c1cc3n(n1)CC(CCOCC1(C(F)(F)F)CC1)O3)CO2 (stereo partly drawn) | < 1000 nM
O=C(N[C@H]1COc2ccc(Cl)cc2C1)c1cc2n(n1)CCC(C(F)F)O2 (stereo partly drawn) [Example 157] | < 10000 nM
O=C(NC1COc2c(F)cc(F)cc2C1)c1cc2n(n1)CCC(c1ccccc1)O2 (stereo not drawn) | < 10000 nM
O=C(N[C@H]1COc2ccc(Cl)cc2C1)c1cc2n(n1)CCC(COCCOCC(F)(F)F)O2 (stereo partly drawn) | < 1000 nM
O=C(N[C@H]1COc2ccc(C(F)(F)F)cc2C1F)c1cc2n(n1)CCC(C1CCOC1)O2 (stereo partly drawn) | < 1000 nM
O=C(N[C@H]1COc2ccc(COCC(F)(F)F)cc2C1)c1cc2n(n1)CC(CCNCC(F)(F)F)O2 (single isomer, unassigned) [232 (isomer B)] | < 1000 nM
O=C(NC1COc2ccccc2C1)c1cc2n(n1)CCN(C(=O)CCc1ccccc1)C2 (stereo not drawn) | < 10000 nM
Cc1ccc2c(c1)C[C@@H](NC(=O)c1cc3n(n1)CC(CCNCC(F)(F)F)O3)CO2 (stereo partly drawn) [Example 227] | < 1000 nM
O=C(N[C@H]1COc2ccc(-c3cnccn3)cc2C1)c1cc2n(n1)CCC(COCC1(C(F)(F)F)CC1)O2 (stereo partly drawn) | < 1000 nM

Provenance of the data: patent US12421225B2
